Source of measurements: PubChem BioAssay (NCI)

System: KM12 colon
Assay name: NCI tumour cell line growth inhibition, 48 h
Observable: TGI (µM)

>>> df
                                   molecule  target_of_assay  qual  experimental_result
0  COC(=O)C1=C(O)[C@H](C(=O)OC)[C@]2(O)[C@@H](C(=O)OC)[C@H]1C[C@@H](c1ccc(OC(=O)/C=C/c3ccco3)cc1)[C@@H]2C(=O)OC       KM12 colon     >                  100
1  COCOCC[C@@H]1CC=CC(NC(=O)OCc2ccccc2)C1/C=C/C(=O)CCC1OCCO1 (some centres undefined)       KM12 colon     =                 45.4
2  Cc1ccc(C2CC(c3cccc(Nc4ccncc4)c3)=NN2c2ccccc2)cc1 (centres undefined)       KM12 colon     =                 3.25
3  CCC1=NC(C(F)(F)F)(C(F)(F)F)N=C(/N=C(/N)N(C)C(C(C)C)P(=O)(OC(C)C)OC(C)C)O1 (centres undefined)       KM12 colon     >                  100

----------
Test system: RXF 393 renal
Assay name: NCI tumour cell line growth inhibition, 48 h
Readings of TGI for the listed compounds
Observable: TGI

In [3]: df
Out[3]:
                                   compound  experimental_result
0  COC(=O)C(=O)C(C(=O)C(=O)Nc1ccc(C)cc1)c1nc2ccc(C(=O)c3ccccc3)cc2[nH]c1=O (stereo not drawn)             > 100 µM
1  CO[C@@H]1[C@H]2[C@@H](C)c3ccoc3C[C@@H]2[C@@]2(C)CC[C@H](OC(=O)c3ccccc3)[C@](C)(C(=O)O)[C@]2(O)[C@@H]1OC(=O)c1ccccc1                39 µM
2  CCC(=O)NCCc1c2c3c(ccnc3c3ncsc13)-c1ccccc1N2             > 100 µM
3  O=C(CN(c1ccc(S(=O)(=O)O)cc1)c1ccc(S(=O)(=O)O)cc1)Nn1cnc2ccc(S(=O)(=O)N(c3ccc(S(=O)(=O)O)cc3)c3ccc(S(=O)(=O)O)cc3)cc2c1=O             > 100 µM
4  O=C(N/N=C(/COc1cccc(Cl)c1)N=Cc1cccnc1)c1ccncc1             > 100 µM
5  Cc1nnc(-c2ccc(C)c(-c3ccc(C(=O)NCc4ccc(Cl)cc4)cc3)c2)o1              > 25 µM
6  O=C(O)c1ccc(Nc2nc3cc(C(F)(F)F)ccc3nc2-c2ccccc2)cc1              81.5 µM
7  NC(N)=NS(=O)(=O)c1ccc(NC(=O)c2ccc3[nH]c4ccccc4c(=O)c3c2)cc1             > 100 µM

----------
Tested on: BT-549 breast
Assay name: NCI tumour cell line growth inhibition, 48 h
Readings of TGI for the listed compounds
Observable: TGI

>>> print(df.to_string())
                                    compound  experimental_result
 0  O=[N+]([O-])c1cccc2nc3ccccc3c(NCCCN3CCCCC3)c12             0.114 µM
 1  CC(=O)O[C@@H]1O[Si](C(C)(C)C)(C(C)(C)C)[C@H](C)[C@H]1C             > 100 µM
 2  Cn1c(-c2ccc(N=NNc3ccc(-c4n[nH]c(=S)n4C)cc3)cc2)n[nH]c1=S              12.6 µM
 3  O=C1C(=O)N(c2cccc(C(F)(F)F)c2)C(=O)C(=O)C1c1nc2ccccc2s1             > 100 µM
 4  N#Cc1c(-c2ccccc2)c(C#N)c(=O)n(C2OC(CO)C(O)C(O)C2O)c1S (stereo unspecified)             > 100 µM
 5  CSc1ccc(C2=NN(C(C)=O)C(c3ccc(F)cc3)C2)cc1 (stereo unspecified)              40.2 µM
 6                      NNC(=S)Nc1cccc(Cl)c1             > 100 µM
 7  Cc1c(-c2ccccc2)c(C#N)c2nnn(-c3cccc(Cl)c3)c(=O)n12             > 100 µM
 8           CCOC(=O)NC(=S)c1ccc(O)c2ccccc12              95.2 µM
 9  CCCCCCCCCc1c(O)c(O)c(CCCCCCCCC)c(CCCCCCCCC)c1CCCCCCCCC             > 100 µM
10     CN(C)C(=O)C1CCN(Cc2c[nH]c3ccccc23)CC1             > 100 µM
11  CCOC(=O)NC(Nc1ccc(Cl)cn1)(C(F)(F)F)C(F)(F)F             > 100 µM
12       COc1ccc(Nc2nc3ccccc3nc2C(=O)O)cc1OC             > 100 µM
13  C[C@]12CC/C(=N\OCCN3CCCCC3)C=C1CCC1C2CC[C@@]2(C)C1CC[C@]2(C)O (stereo partly specified)              33.5 µM
14  COc1cc(C23OCC(Cc4cc5c(cc42)OCO5)C3CO)cc(OC)c1OC (stereo unspecified)             > 100 µM
15  O=C(CCOS(=O)(=O)CF)N1CCN(C(=O)CCOS(=O)(=O)CF)CC1             > 100 µM
16  COC(=O)C1=C(O)[C@H](C(=O)OC)[C@]2(O)[C@@H](C(=O)OC)[C@H]1C[C@@H](c1ccc(OC(=O)/C=C/c3ccco3)cc1)[C@@H]2C(=O)OC              49.4 µM
17  COC(=O)c1ccc2c(c1)c1c(C)c3ccncc3c(C)c1n2C              36.2 µM
18  COc1ccc(/C=C\c2cc(OC)c(OC)c(OC)c2)c(O)c1O              32.3 µM
19                           CCN(CC)COC(=S)S             > 100 µM
20  C=C1NC(=O)C(CC(C(=O)C(=O)Nc2c(C)cccc2C(C)(C)C)C(=O)c2ccc3ccccc3c2)C(=O)N1 (stereo unspecified)             > 100 µM

----------
Test system: SNB-78 CNS
Assay name: NCI tumour cell line growth inhibition, 48 h
Where a SMILES comes first, the peptide text is derived from it. [ ]: non-standard residue; d: D form. 2Nal = N[CH](Cc1ccc2ccccc2c1)C(=O)O
Readings of TGI for the listed compounds
Observable: TGI

Compound	Target of assay	Experimental result
O=C(O)CCSC(=S)Nc1cccc(F)c1	SNB-78 CNS	> 100 µM
CCCCCCCCCCCCCC(=O)OCC1OC(n2cc(F)c(=O)[nH]c2=O)C(N)C(OC(=O)CCCCCCCCCCCCC)C1O (stereo not drawn)	SNB-78 CNS	> 100 µM
CC(C)C(NC(=O)C(CCCCN)NC(=O)C(Cc1c[nH]c2ccccc12)NC(=O)C(Cc1ccc(O)cc1)NC(=O)C(CS)NC(=O)C(N)Cc1ccc2ccccc2c1)C(=O)NC(CS)C(=O)NC(C(N)=O)C(C)O (stereo not drawn) (H-[2Nal]CYWKVCT-NH2; configuration not given here)	SNB-78 CNS	23.2 µM

----------
Readings of TGI for the listed compounds
Tested on: SF-295 CNS
Assay name: NCI tumour cell line growth inhibition, 48 h

Compound	Target of assay	TGI
O=c1c(-c2ccc(O)cc2)coc2cc(OC3OC(CO)C(O)C(O)C3O)cc(O)c12 (configuration not stated)	SF-295 CNS	> 100 µM
CN(C)C(=O)C1CCN(Cc2c[nH]c3ccccc23)CC1	SF-295 CNS	> 100 µM
C=C1NC(=O)C(CC(C(=O)C(=O)Nc2c(C)cccc2C(C)(C)C)C(=O)c2ccc3ccccc3c2)C(=O)N1 (configuration not stated)	SF-295 CNS	> 100 µM
C=CCc1cccc(/C=N\N=C(/N)NO)c1O	SF-295 CNS	7.09 µM
C/C=C(/C)C(=O)OC1C=C(CO)C(=O)C(OC(=O)C(C)(O)C(C)Cl)C1C(C)C (configuration not stated)	SF-295 CNS	4.79 µM
Nc1nc(N)c(N=Nc2ccc(C(=O)O)c(O)c2)c(N)n1	SF-295 CNS	> 100 µM
CCc1nc2cc(/C=C/C(=O)NO)ccc2c(=O)n1CCc1ccc(F)cc1	SF-295 CNS	3.61 µM
COc1ccc2c(-c3ccc(O)cc3)c(Oc3ccc(Cl)cc3)c(=O)oc2c1	SF-295 CNS	23 µM
Cc1nnc(-c2ccc(C)c(-c3ccc(C(=O)NCc4ccc(Cl)cc4)cc3)c2)o1	SF-295 CNS	> 25 µM
CSc1nc(NC2OC(COC(C)=O)C(OC(C)=O)C(OC(C)=O)C2OC(C)=O)c(N=C(C)C(C)=O)c(=O)n1C (configuration not stated)	SF-295 CNS	> 100 µM
CC(C)(C)c1ccc(O)c(CN(Cc2cc(C(C)(C)C)ccc2O)C2CCCCC2)c1	SF-295 CNS	34 µM
O=C(O)CCSC(=O)Nc1ccccc1Cl	SF-295 CNS	> 100 µM
O=C1NC(S(=O)(=O)O)=NNC12c1ccccc1-c1ccccc12	SF-295 CNS	> 10 µM
COc1ccccc1NC(=S)Nc1cc(C)ccn1	SF-295 CNS	> 100 µM
CC(Oc1ccccc1Cl)C(=O)NN1C(=O)CSC1c1ccc(Cl)cc1 (configuration not stated)	SF-295 CNS	37.8 µM
CC(=N)N(C)O	SF-295 CNS	> 100 µM
COc1ccc2c(c1)C(=O)c1c-2n(CCCN)c(=O)c2cc(OC)c(OC)cc12	SF-295 CNS	1.04 µM
Cn1c2c3c(F)c(F)ccc3nc-2cc2ccccc21	SF-295 CNS	5.69 µM
CCN(CC)CCNc1ccc2nnn3c4ccccc4c(=O)c1c23	SF-295 CNS	15.3 µM
COC(=O)c1ccc2c(c1)c1c(C)c3ccncc3c(C)c1n2C	SF-295 CNS	7.48 µM
CCN(CC)COC(=S)S	SF-295 CNS	> 100 µM
CC1=C2[C@H](c3ccccc3)C3C=CC2(c2ccccc23)N(C(=O)C(c2ccccc2)c2ccccc2)C1=O (some centres not stated)	SF-295 CNS	> 100 µM
CCCCCCCCCOC(=S)NCCCCC	SF-295 CNS	> 100 µM
CC(=O)NC(CCCCN(Cc1ccccc1)C(=O)N(CCCl)N=O)C(=O)NCc1ccccc1 (configuration not stated)	SF-295 CNS	43.4 µM
CCC[CH2][Sn]([CH2]CCC)([O]C(=O)c1cc(F)cc(F)c1)[O][Sn]([CH2]CCC)([CH2]CCC)[O]C(=O)c1cc(F)cc(F)c1	SF-295 CNS	3.06 µM
CN(C)CCC1(C2=CCCC2)CC/C(=C\c2ccccc2Cl)C1=O (configuration not stated)	SF-295 CNS	27.9 µM
O=c1nc2sc3ccc4ccccc4c3n2[nH]c1=O	SF-295 CNS	> 100 µM
N#Cc1cc(NC(=O)c2ccccc2)c(=O)n2c1[nH]c1ccccc12	SF-295 CNS	> 100 µM
COC1(CC[C@H](C)COC2OC(CO)C(O)C(O)C2O)O[C@H]2C[C@H]3[C@@H]4CC=C5C[C@@H](OC6OC(CO)C(O)C(OC7OC(CO)C(O)C(O)C7O)C6OC6OC(C)C(O)C(O)C6O)CC[C@]5(C)[C@H]4CC[C@]3(C)[C@H]2[C@@H]1C (some centres not stated)	SF-295 CNS	10.1 µM
C1CCN2CC3CCCN4CCCC(C2C1)C34 (configuration not stated)	SF-295 CNS	> 100 µM
COC(=O)c1c(C(=O)OC)c2c3ccccc3n(C)c2c2c1c1ccccc1n2C	SF-295 CNS	> 100 µM
O=C1C2ON3c4ccccc4C(=O)C3(c3ccccc3)C2C(=O)N1c1ccccc1 (configuration not stated)	SF-295 CNS	> 100 µM
COc1ccc(CNC(=O)[C@H](Cc2ccc(O)cn2)NC(C)=O)cc1	SF-295 CNS	> 100 µM
O=C(O)CC1CC=C[C@H]2c3cc4c(cc3C(=O)NC12)OCO4 (some centres not stated)	SF-295 CNS	> 75 µM
O=C(NNC(=S)NCc1ccccc1)C12CC3CC(CC(C3)C1)C2	SF-295 CNS	> 100 µM
CC(O[Si](c1ccccc1)(c1ccccc1)C(C)(C)C)[C@H](NC(=O)OC(C)(C)C)C(=O)O (some centres not stated)	SF-295 CNS	> 100 µM
COC(=O)[C@@H]1Cc2cc(O)c(O)cc2C2(CCN(C)CC2)O1	SF-295 CNS	> 10 µM
CC[C@@H](C)Nc1cc(C(=O)NC2CC3CCC(C2)N3c2ccc(C(=O)C3CC3)cn2)c(C)cc1C(N)=O (some centres not stated)	SF-295 CNS	> 100 µM
COc1ccc(/C=c2/sc3n(c2=O)NC(c2ccc(Cl)cc2)NN=3)cc1 (configuration not stated)	SF-295 CNS	> 100 µM
CC1=CC(C)(C)Nc2ccc(CSc3ccccc3)cc21	SF-295 CNS	48.2 µM
Cn1c(=O)oc2cc(Br)ccc21	SF-295 CNS	> 100 µM
O=[N+]([O-])c1sc2ccc(Cl)cc2c1Nc1ccc(Cl)cc1	SF-295 CNS	> 100 µM
